Test: GSH reaction rates (inherent GSH reactivity)
Assay type: in vitro ADME
Parameters: dose or concentration left out as unconfirmed
Settings: buffer, pH 7.4
QUANTITY_KIND: half-life (h)

[P] CC(C)[C@@H](C(=O)N[C@H]1Cc2cc(O)cc(c2)-c2ccc3c(C(C)(C)C#N)cn(c3c2)CC(C)(C)COC(=O)[C@@H]2CCCN(N2)C1=O)N1CCCC2(CCN(C(=O)CCl)C2)C1=O (some centres unmarked) [RM351, reference compound]
[Q] CC(C)[C@@H](C(=O)N[C@H]1Cc2cc(O)cc(c2)-c2ccc3c(C(C)(C)C#N)cn(c3c2)CC(C)(C)COC(=O)[C@@H]2CCCN(N2)C1=O)N1CCC2(CN(C(=O)CCl)C2)C1=O [RM44, reference compound]
Query: P or Q : whose half-life is greater? Mark your answer with the label of the selected entry.
Result: Q
(Q: 8.9 h, P: 4.3 h)

----------
Biological target: KRAS G12C-BRAF complex (Homo sapiens (Human), UniProt P01116+P62937, G12C)
Sequence (P01116-2 other isoform, or with tags, fused parts or gaps G12C): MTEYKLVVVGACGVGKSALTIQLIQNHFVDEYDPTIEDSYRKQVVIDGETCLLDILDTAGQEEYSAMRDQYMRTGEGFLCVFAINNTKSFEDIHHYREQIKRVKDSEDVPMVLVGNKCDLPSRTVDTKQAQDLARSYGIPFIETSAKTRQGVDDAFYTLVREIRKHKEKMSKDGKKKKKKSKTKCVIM
Sequence (P62937 whole entry): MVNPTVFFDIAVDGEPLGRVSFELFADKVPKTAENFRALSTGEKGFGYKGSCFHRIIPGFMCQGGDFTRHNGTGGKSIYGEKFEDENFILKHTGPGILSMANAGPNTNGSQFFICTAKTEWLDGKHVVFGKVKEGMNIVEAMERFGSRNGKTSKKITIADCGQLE
Assay: KRAS-BRAF with CYPA (500 nM) interaction assay (TR-FRET), G12C
Format: biochemical
pIC50: −log10 of the molar value.
QUANTITY_KIND: pIC50

Answered examples (5):
- COMPOUND: "CCn1c(-c2cc(N3CCN(C)CC3)cnc2[C@H](C)OC)c2c3cc(c(F)cc31)-c1csc(n1)C[C@H](NC(=O)[C@H](C(C)C)N1CCCC3(CCN(C(=O)[C@H](F)Cl)CC3)C1=O)C(=O)N1CCC[C@H](N1)C(=O)OCC(C)(C)C2 (atropisomer, axis not shown; (M))"
  pIC50: 7.42
- COMPOUND: "CCn1c(-c2cc(N3CCN(C)CC3)cnc2[C@H](C)OC)c2c3cc(c(F)cc31)-c1csc(n1)C[C@H](NC(=O)[C@@H](COC1CN(C(=O)[C@H](F)Cl)C1)C(C)C)C(=O)N1CCC[C@H](N1)C(=O)OCC(C)(C)C2 (atropisomer, axis not shown; (M))"
  pIC50: 6.97
- COMPOUND: "CCn1c(-c2cc(N3CCN(CC(F)(F)F)CC3)cnc2[C@H](C)OC)c2c3cc(c(F)cc31)-c1csc(n1)C[C@H](NC(=O)[C@H](C(C)C)N(C)C(=O)[C@H]1CCN(C(=O)[C@H](F)Cl)C1)C(=O)N1CCC[C@H](N1)C(=O)OCC(C)(C)C2 (atropisomer, axis not shown; (M))"
  pIC50: 7.74
- COMPOUND: "CCn1c(-c2cc(N3CCOCC3)cnc2[C@H](C)OC)c2c3cc(c(F)cc31)-c1csc(n1)C[C@H](NC(=O)[C@H](C(C)C)N1CCC3(CCN(C(=O)[C@H](F)Cl)CC3)C1=O)C(=O)N1CCC[C@H](N1)C(=O)OCC(C)(C)C2 (atropisomer, axis not shown; (M))"
  pIC50: 6.91
- COMPOUND: "CO[C@@H](C)c1ncc(N2CCN(CC(F)(F)F)CC2)cc1-c1c2c3cc(c(F)cc3n1CC(F)(F)F)-c1csc(n1)C[C@H](NC(=O)[C@H](C(C)C)N1CCCC3(CCN(C(=O)[C@H](F)Cl)CC3)C1=O)C(=O)N1CCC[C@H](N1)C(=O)OCC(C)(C)C2 (atropisomer, axis not shown; (M))"
  pIC50: 7.14

[I] CO[C@@H](C)c1ncc(N2CCN(C)CC2)cc1-c1c2c3cc(c(F)cc3n1CC(F)(F)F)-c1csc(n1)C[C@H](NC(=O)[C@H](C(C)C)N1CCC[C@@]3(CCN(C(=O)[C@H](F)Cl)C3)C1=O)C(=O)N1CCC[C@H](N1)C(=O)OCC(C)(C)C2 (single isomer, unassigned)
[II] CC(C)[C@@H](C(=O)N[C@H]1Cc2cc(O)cc(c2)-c2ccc3c(C(C)(C)C#N)cn(c3c2)CC(C)(C)COC(=O)[C@@H]2CCCN(N2)C1=O)N1CCC2(CN(C(=O)[C@H](F)Cl)C2)C1=O [RM44-A, reference compound]
[III] CC(C)[C@@H](C(=O)N[C@H]1Cc2cc(O)cc(c2)-c2ccc3c(C(C)(C)C#N)cn(c3c2)CC(C)(C)COC(=O)[C@@H]2CCCN(N2)C1=O)N1CCC2(CN(C(=O)CCl)C2)C1=O [RM44, reference compound]
Query: Rank by pIC50 (largest to smallest). Output spec: labels arranged per the requested ranking.
Result: III, I, II
